Across several studies, compounds have been characterized by their IC50 on Tyrosine-protein kinase JAK2 (Homo sapiens); a selection follows.
Sequence (O60674 whole entry): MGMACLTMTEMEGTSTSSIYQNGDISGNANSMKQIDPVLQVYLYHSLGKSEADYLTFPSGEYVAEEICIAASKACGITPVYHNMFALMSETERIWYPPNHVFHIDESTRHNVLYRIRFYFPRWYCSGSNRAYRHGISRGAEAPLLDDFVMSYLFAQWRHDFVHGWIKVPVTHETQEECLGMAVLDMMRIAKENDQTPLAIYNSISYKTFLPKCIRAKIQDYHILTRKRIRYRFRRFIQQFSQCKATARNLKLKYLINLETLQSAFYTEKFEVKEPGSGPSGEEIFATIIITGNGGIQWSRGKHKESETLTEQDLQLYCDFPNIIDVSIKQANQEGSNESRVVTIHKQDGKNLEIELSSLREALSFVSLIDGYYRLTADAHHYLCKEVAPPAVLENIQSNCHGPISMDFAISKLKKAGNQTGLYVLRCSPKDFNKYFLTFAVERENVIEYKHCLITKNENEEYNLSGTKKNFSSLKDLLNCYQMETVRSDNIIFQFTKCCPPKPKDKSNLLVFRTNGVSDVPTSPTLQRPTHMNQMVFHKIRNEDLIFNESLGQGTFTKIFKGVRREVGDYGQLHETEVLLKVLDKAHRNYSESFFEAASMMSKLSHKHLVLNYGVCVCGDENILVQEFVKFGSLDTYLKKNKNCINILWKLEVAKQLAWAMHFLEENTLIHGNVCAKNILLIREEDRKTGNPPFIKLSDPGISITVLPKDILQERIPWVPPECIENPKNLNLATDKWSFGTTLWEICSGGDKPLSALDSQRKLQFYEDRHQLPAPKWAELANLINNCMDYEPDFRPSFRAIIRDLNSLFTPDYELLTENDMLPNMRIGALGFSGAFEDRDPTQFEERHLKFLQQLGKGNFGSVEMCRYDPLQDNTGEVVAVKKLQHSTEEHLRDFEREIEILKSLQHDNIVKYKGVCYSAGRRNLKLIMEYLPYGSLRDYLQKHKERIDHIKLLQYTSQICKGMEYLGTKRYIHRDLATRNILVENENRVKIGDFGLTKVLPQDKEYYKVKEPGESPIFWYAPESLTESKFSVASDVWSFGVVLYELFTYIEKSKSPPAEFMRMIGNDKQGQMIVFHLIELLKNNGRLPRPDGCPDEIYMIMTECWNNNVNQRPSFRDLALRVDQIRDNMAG

Field: example entries. Status: answers known.
Prompt: Consider the compound shown here: O=C(Nc1nc2cccc(C3CCC4(CC3)CN(C(=O)C3(F)CC3)C4)n2n1)[C@H]1CC1(F)F What is its recorded IC50?
Response: 5.46 µM

Prompt: Consider the compound shown here: CS(=O)(=O)Nc1nn(C(CC#N)C2CCCC2)cc1-c1ncnc2[nH]ccc12 (stereo not drawn) What is its recorded IC50?
Response: < 0.02 µM

Now look at this one.
Prompt: Consider the compound shown here: CCN1CCC(OC2CCC(Nc3nccc(-c4ccc(C(=O)NCC#N)cc4)n3)CC2)CC1 (stereo not drawn) What is its recorded IC50?
Response: < 1 µM

---

Across several studies, compounds have been characterized by their IC50 on Tyrosine-protein kinase JAK2 (Homo sapiens); a selection follows.
measuredMetric: IC50 (nM)

Field: example entries. Status: answers known.
Prompt: Consider the compound shown here: O=C(Nc1nc2cccc(C3(F)CCC4(CC3)CN(C(=O)CC(F)F)C4)n2n1)C1CC1 What is its recorded IC50?
Response: 3710

Prompt: Consider the compound shown here: N#CCC(=O)N1CC2(CCC(c3cccc4nc(NC(=O)[C@@H]5CC5(F)F)nn34)CC2)C1 What is its recorded IC50?
Response: 624

I = CN(C)CCNC(=O)N1CCc2[nH]c(-c3n[nH]c4nc(-c5cc(F)c(O)cc5CC(F)(F)F)nc(NCc5cc(O)ccc5N(C)S(C)(=O)=O)c34)nc2C1
II = Cc1cc(F)c(Nc2ccnc3c2C(=O)Nc2cc(CN4CC[C@@H](N)C4)ccc2N3)cc1O
III = CC(=O)Nc1cc(Oc2ccc3nc(Nc4cccc(C(C)(C)C#N)c4)n4c3c2CCC4)ccn1
IV = Cc1c(-c2c(F)cc(C(N)=O)c3[nH]c4cc(C(C)(C)O)ccc4c23)cccc1-n1c(=O)[nH]c2c(F)cccc2c1=O
Prompt: # ascending order, key=IC50 The labels, placed in the requested order, form the answer.
Response: I, II, IV, III
